Target: T1, Jab1/CSN5 subunit of signalosome, recombinant (UniProt Q92905 1-334, limits assumed)
T1 construct: Produced in recombinant form as a control JAMM domain protein; the construct is not described
T1 sequence (Q92905 whole entry, the tested form may be a part): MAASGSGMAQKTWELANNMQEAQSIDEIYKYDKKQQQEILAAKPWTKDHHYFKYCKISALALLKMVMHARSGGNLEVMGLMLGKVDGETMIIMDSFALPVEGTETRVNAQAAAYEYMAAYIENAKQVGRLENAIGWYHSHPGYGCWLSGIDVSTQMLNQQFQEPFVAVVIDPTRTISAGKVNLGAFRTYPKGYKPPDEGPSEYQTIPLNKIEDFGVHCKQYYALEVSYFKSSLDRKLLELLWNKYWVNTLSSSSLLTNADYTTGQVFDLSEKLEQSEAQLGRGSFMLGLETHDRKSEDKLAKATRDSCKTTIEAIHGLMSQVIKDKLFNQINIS
Assay: protein-protein interaction assay with GST-BRCA1 fragments
Measurement type: binding result

binder="GST-BRCA1 fragment F3 (BRCA1 residues 502-802) (other, Produced in bacteria; also called fragment 3; not shown: glutathione S-transferase (GST) fusion tag) LKRKRRPTSGLHPEDFIKKADLAVQKTPEMINQGTNQTEQNGQVMNITNSGHENKTKGDSIQNEKNPNPIESLEKESAFKTKAEPISSSISNMELELNIHNSKAPKKNRLRRKSSTRHIHALELVVSRNLSPPNCTELQIDSCSSSEEIKKKKYNQMPVRHSRNLQLMEGKEPATGAKKSNKPNEQTSKRHDSDTFPELKLTNAPGSFTKCSNTSELKEFVNPSLPREEKEEKLETVKVSNNAEDPKDLMLSGERVLQTERSVESSSISLVPGTDYGTQESISLLEVSTLGKAKTEPNKCV" observed_value="no binding"
binder="GST-BRCA1 fragment F2 (BRCA1 residues 260-553) (other, Produced in bacteria; also called fragment 2; not shown: glutathione S-transferase (GST) fusion tag) KYQGSSVSNLHVEPCGTNTHASSLQHENSSLLLTKDRMNVEKAEFCNKSKQPGLARSQHNRWAGSKETCNDRRTPSTEKKVDLNADPLCERKEWNKQKLPCSENPRDTEDVPWITLNSSIQKVNEWFSRSDELLGSDDSHDGESESNAKVADVLDVLNEVDEYSGSSEKIDLLASDPHEALICKSERVHSKSVESNIEDKIFGKTYRKKASLPNLSHVTENLIIGAFVTEPQIIQERPLTNKLKRKRRPTSGLHPEDFIKKADLAVQKTPEMINQGTNQTEQNGQVMNITNSGH" observed_value="no binding"
binder="GST-BRCA1 fragment F5 (BRCA1 residues 1005-1313) (other, Produced in bacteria; also called fragment 5; not shown: glutathione S-transferase (GST) fusion tag) EHSMSPEREMGNENIPSTVSTISRNNIRENVFKEASSSNINEVGSSTNEVGSSINEIGSSDENIQAELGRNRGPKLNAMLRLGVLQPEVYKQSLPGSNCKHPEIKKQEYEEVVQTVNTDFSPYLISDNLEQPMGSSHASQVCSETPDDLLDDGEIKEDTSFAENDIKESSAVFSKSVQKGELSRSPSPFTHTHLAQGYRRGAKKLESSEENLSSEDEELPCFQHLLFGKVNNIPSQSTRHSTVATECLSKNTEENLLSLKNSLNDCSNQVILAKASQEHHLSEETKCSASLFSSQCSELEDLTANTNTQ" observed_value="no binding"
